All values here come from ChEMBL document CHEMBL1201862.

tested on: NCI/ADR-RES; test: NCI tumour cell line growth inhibition, 48 h
Calls of active or inactive are those of the source. Rule as the data show it: active = GI50 up to about 1.1 µM and inactive = higher.
Outcome codes: active, inactive

# Molecule, Subject of test, Classification
records = [
    ("C(=C/c1ccc2nc(-c3ccc(/C=C/C=N/NC4=NCCCN4)cc3)cn2c1)/C=N/NC1=NCCCN1", "NCI/ADR-RES", "inactive"),
    ("Cn1c(=O)c2c(no[n+]2[O-])n(C)c1=O", "NCI/ADR-RES", "inactive"),
    ("CN(C)CCNC(=O)c1cccc2c(NC(CCCNC(=N)N)C(=O)O)c3ccccc3[n+](C)c12 (centres undefined)", "NCI/ADR-RES", "inactive"),
    ("Cc1ccc(-n2c(=O)c3nn4c(=O)n(-c5ccc(C)cc5)c(=O)c4nn3c2=O)cc1", "NCI/ADR-RES", "inactive"),
    ("COc1cc(S(=O)(=O)Nc2ccc(-c3csc(/N=C\\c4ccccc4)n3)cc2)ccc1Cl", "NCI/ADR-RES", "inactive"),
    ("CCCCCC(=O)OC[n+]1ccc2c(C)c3[nH]c4ccc(OC)cc4c3c(C)c2c1", "NCI/ADR-RES", "active"),
    ("O=C1c2ccccc2-c2c1c1ccccc1c(=O)n2-c1ccccc1", "NCI/ADR-RES", "inactive"),
    ("O=C(O)C1C2OC(C(Br)C2Br)C1C(=O)O (centres undefined)", "NCI/ADR-RES", "inactive"),
    ("O=S(=O)(NNc1ccccc1)c1ccccc1", "NCI/ADR-RES", "inactive"),
    ("OC(c1nc2ccccc2s1)(C(F)(F)F)C(F)(F)F", "NCI/ADR-RES", "inactive"),
    ("CCCCC(C(=O)N/N=C/c1ccc([N+](=O)[O-])o1)C(=O)N/N=C/c1ccc([N+](=O)[O-])o1", "NCI/ADR-RES", "inactive"),
    ("O=C1C=CC(=O)c2c(O)c(N(CCCl)CCCl)c(Cl)c(O)c21", "NCI/ADR-RES", "inactive"),
    ("CCC1(c2ccc(N)cc2)CCC(=O)NC1=O (centres undefined) [AMINOGLUTETHIMIDE]", "NCI/ADR-RES", "inactive"),
    ("CCn1cc(C(=O)O)c(=O)c2cc(F)c(N3CCN(CN4C(=O)/C(=N\\c5ncc(Cc6cc(OC)c(OC)c(OC)c6)c(N)n5)c5cc(Cl)ccc54)CC3)cc21", "NCI/ADR-RES", "inactive"),
]

====

test system: K562; assay: NCI tumour cell line growth inhibition, 48 h
Activity calls are given as the source filed them. No stated cut-off is given here; in the data, active = GI50 up to about 1.1 µM and inactive = higher.
This section presents compounds with their documented GI50 values.
Measured metric: GI50

# Compound, Subject of test, Reported
data = [
    ("CCn1cc(C(=O)O)c(=O)c2cc(F)c(N3CCN(CN4C(=O)/C(=N\\c5ncc(Cc6cc(OC)c(OC)c(OC)c6)c(N)n5)c5cc(Cl)ccc54)CC3)cc21", "K562", "15.9 µM (inactive)"),
    ("CN1OC(=O)N(C)C1c1ccccc1 (stereo not drawn)", "K562", "> 100 µM (inactive)"),
    ("CC1(C)[C@@H]2C[C@H]1c1cnc(-c3ccccn3)cc1C2[C@@H]1c2cc(-c3ccccn3)ncc2[C@@H]2C[C@H]1C2(C)C (stereo partly drawn)", "K562", "22.6 µM (inactive)"),
    ("CCCCCC1=C2C(c3ccc(OC)cc3)=C(N)C(c3ccc(OC)cc3)=C3NC(=O)C(C=C1)C32 (stereo not drawn)", "K562", "42.1 µM (inactive)"),
    ("COc1cc(C(O)CCBr)c(OC)cc1C (stereo not drawn)", "K562", "3.61 µM (inactive)"),
    ("COc1ccc(C2(CC(C)O)SCCCS2)cc1 (stereo not drawn)", "K562", "> 100 µM (inactive)"),
    ("CC(C)CCCCCCCCCCCCC(=O)NCC(=O)NC1C(C)OC(Nc2ncnc3c2ncn3C)C(O)C1O (stereo not drawn)", "K562", "> 73.3 µM (inactive)"),
    ("CCOC(=O)c1nc2ccccc2nc1Nc1cc(OC)c(OC)c(OC)c1", "K562", "> 100 µM (inactive)"),
    ("CCOC(=O)c1c(SCc2ccccc2)nc2c3ccccc3ccn12", "K562", "> 100 µM (inactive)"),
    ("CCOC(=O)/C=C\\[C@H]1OC(C)(C)O[C@H]1[C@H](O)[C@H]1COC(C)(C)O1", "K562", "10.4 µM (inactive)"),
    ("CCOC(=O)c1c(-c2ccccc2)c(-c2ccccc2)cn1C", "K562", "> 10 µM (inactive)"),
    ("N#CCCN(c1ccc(/C=C2\\N=C(Cc3ccccc3)OC2=O)cc1)S(=O)(=O)c1ccccc1", "K562", "> 100 µM (inactive)"),
    ("O=P1(O)c2ccccc2Nc2cc(C(F)(F)F)ccc21", "K562", "> 100 µM (inactive)"),
]

====

tested on: TK-10; assay: NCI tumour cell line growth inhibition, 48 h
The source made the active and inactive calls. Rule as the data show it: active = GI50 up to about 1.1 µM and inactive = higher.

# Compound, GI50
data = [
    ("NC(=O)N/N=C1\\CC2C3CC4C2C4C13 (stereo not drawn)", "> 100 µM (inactive)"),
    ("COc1ccc(-c2cc(-c3cc(F)c(Cl)cc3Cl)on2)cc1OC", "49.5 µM (inactive)"),
    ("O=C(c1ccccc1)[C@H]1Nc2cnccc2C2c3ccccc3CC21 (stereo partly drawn)", "35.1 µM (inactive)"),
    ("O=C(c1cccc(OCc2ccccc2)c1OCc1ccccc1)N1CCSC1=S", "56.5 µM (inactive)"),
    ("CC(C(=O)O)c1ccc(-n2nnc3c(=O)[nH][nH]c(=O)c32)cc1 (stereo not drawn)", "> 100 µM (inactive)"),
    ("COC(=O)c1csc([C@@H](OC(=O)[C@H](C)[C@H](CCCC(C)(Cl)Cl)OC(=O)c2csc([C@H](O)CO)n2)C(C)C)n1", "12.4 µM (inactive)"),
    ("CN(C)CCN1C(=O)c2ccccc2C1(O)c1ccc(Cl)cc1 (stereo not drawn)", "> 100 µM (inactive)"),
    ("CC(C)=CCCC1(C)C=Cc2c(c(C)cc3c2[nH]c2cc(O)ccc23)O1 (stereo not drawn)", "> 25 µM (inactive)"),
]

====

test system: DMS-273; test: NCI tumour cell line growth inhibition, 48 h
The source made the active and inactive calls. No stated cut-off is given here; in the data, active = GI50 up to about 1.1 µM and inactive = higher.
This section presents compounds with their documented GI50 values.

# Compound, GI50
records = [
    ("COc1ccc(C2Oc3cc(OC)c(O)cc3[C@@H]2C)cc1 (stereo partly drawn)", "29.4 µM (inactive)"),
    ("O=[N+]([O-])c1cccc(/C=N\\NS(=O)(=O)c2ccc(Cl)cc2)c1O", "> 100 µM (inactive)"),
    ("c1ccc2c(c1)C1=NCCN1c1ccccc1-2", "1.74 µM (inactive)"),
    ("CNC(=O)OCc1nc(SC)n(C)c1COC(=O)NC", "86.5 µM (inactive)"),
    ("Cn1c(=O)c2nc3sc4ccccc4c(=N)n3c2n(C)c1=O", "> 100 µM (inactive)"),
    ("CN1C(c2ccccc2)CC(C)(O)CC1c1ccccc1 (stereo not drawn)", "> 100 µM (inactive)"),
    ("CCOc1ccccc1NC(=O)CCC(=O)NN", "> 100 µM (inactive)"),
    ("CC1=C(C(=O)NCc2ccccc2)C(c2ccccc2[N+](=O)[O-])C(C(=O)NCc2ccccc2)=C(C)N1", "10.6 µM (inactive)"),
]

====

This section presents compounds with their documented GI50 values.
tested on: RXF 393; experiment: NCI tumour cell line growth inhibition, 48 h
Active and inactive are the calls of the source. Cut-off read from the data, not from the text of the source: active = GI50 up to about 1.1 µM and inactive = higher.
Measured metric: GI50

# Compound, Reported
rows = [
    ("c1ccc2c(c1)C1=NCCN1c1ccccc1-2", "1.56 µM (inactive)"),
    ("CCCCNC(=S)OCCC(C)CCCC(C)C (stereo not drawn)", "> 100 µM (inactive)"),
    ("CCOC(=O)NC(C(F)(F)F)(C(F)(F)F)P(=O)(OC(C)C)OC(C)C", "> 100 µM (inactive)"),
]

====

This section presents molecules with their documented GI50 values.
system: NCI-H226; test: NCI tumour cell line growth inhibition, 48 h
The source made the active and inactive calls. Cut-off read from the data, not from the text of the source: active = GI50 up to about 1.1 µM and inactive = higher.

# Molecule, GI50
data = [
    ("COc1ccc(-c2cc(-c3cc(F)c(Cl)cc3Cl)on2)cc1OC", "13.3 µM (inactive)"),
    ("CCOC(=O)[C@H]1Nc2ccc(Cl)cc2[C@H]2OCC[C@@H]12", "> 100 µM (inactive)"),
    ("Nc1c(C(=O)c2ccccc2)nnc2ccccc12", "30.4 µM (inactive)"),
    ("CSc1ccc(-c2cc(-c3nc4ccccc4[nH]3)nc3[nH]c(-c4nc5ccccc5[nH]4)cc(=O)c23)cc1", "84.5 µM (inactive)"),
    ("CC(=O)Nc1cc(/C=C\\C(=O)N2CC(CCl)c3c2cc(N)c2ccccc32)n(C)n1 (configuration not stated)", "0.00805 µM (active)"),
    ("O=C(NI1OC(=O)c2ccccc21)c1ccc(Cl)cc1", "60.4 µM (inactive)"),
    ("CC[C@@H](/C=C\\CCC1(C[C@H](O)CCC=C(C)C)OCCO1)O[Si](C(C)C)(C(C)C)C(C)C", "19.6 µM (inactive)"),
    ("Cn1c(=O)n(CC2CS2)c2ccccc21 (configuration not stated)", "> 100 µM (inactive)"),
    ("COc1cc(/C=C2/SC(c3ccccc3)N(c3cccc(Cl)c3)C2=O)cc(OC)c1OC (configuration not stated)", "42.7 µM (inactive)"),
    ("O=P(Nc1cccc(Cl)c1)(Oc1ccccc1)N(CCCl)CCCl (configuration not stated)", "15 µM (inactive)"),
    ("C#CCn1c(=O)ccn(/C(=C/C(=O)OCC)C(=O)OCC)c1=O", "18.6 µM (inactive)"),
    ("O=C(c1ccccc1)[C@H]1Nc2ccc(Cl)cc2[C@H]2OCCC[C@@H]12", "21.3 µM (inactive)"),
]
